Target: Rap guanine nucleotide exchange factor 4 (Homo sapiens)
Assay: Confirmatory qHTS for antagonist of cAMP-regulated guanine nucleotide exchange factor 4 (EPAC2) (AID 1645885); also: nearly all actives have a fitted effect of over 25% in size; as to activity change, negative = inhibition: % is scaled to controls: 0 for no effect and ±100 for the full control effect
Conditions: EPAC2 Rap1B-BODIPY-GDP exchange fluorescence, biochemical; series mostly up to 114 µM
Results filed as inconclusive are left out. Activity calls are given as the source filed them. Calls follow the shape of the dose curve; as a rule, active = well fitted inhibition curve with a large enough effect; inconclusive = small, poorly fitted or top-dose-only effect; inactive = no such curve, though single readings can be large or run the other way.
Assay Endpoint: activity change, negative = inhibition

In [3]: df
Out[3]:
                                   compound                  value_measured
0  CCN(CC)C(=O)CC(c1ccc2c(c1)OCO2)c1c(O)cc(OC)cc1OC (stereo not given)                        inactive
1  Cc1noc(C)c1C(=O)N1CCC2(CCN(Cc3ccc(C#N)cc3)CC2)CC1                        inactive
2  COc1ccc(-n2c(=O)c(-c3cc(F)cc(F)c3)nc3cnc(N(C)C)nc32)cc1                        inactive
3  CC(=O)NS(=O)(=O)c1ccc(NC(=O)c2cc(-c3ccc(C)c(C)c3)nc3ccccc23)cc1  -11.1% [at 12.7 µM] (inactive)
4  COc1cccc(-c2ccc3ncnc(N(C)Cc4ccco4)c3c2)c1  -12.8% [at 12.7 µM] (inactive)

---

Assay: SDT Cancer Cell Toxicity qHTS against the NCATS CANVASS Library (AID 1347365); also: nearly all actives have a fitted effect of over 60% in size
Settings: SDT dog glioma viability, ATP luminescence, 72 h; series mostly up to 46.1 µM
Description: Natural products and their derivatives continue to be wellsprings of nascent therapeutic potential. […] To address this issue, the Canvass library of natural products was assembled (https://tripod.nih.gov/canvass), in collaboration with academic and industry researchers, for quantitative high-throughput screening (qHTS) across a diverse set of cell-based and biochemical assays. […] This assay uses ATP (luminescence) content to measure the cytotoxiciy of compounds on SDT dog glioma cancer cell line. […]
Inconclusive results are not listed. Calls of active or inactive are those of the source. The call rests on the fitted dose curve; in most records, active means well fitted cell-killing curve with a large enough effect; inconclusive means small, poorly fitted or top-dose-only effect; inactive means flat fitted curve, though single readings scatter.
Classes used: active, inactive

                                   compound  assigned_category
0  CO[C@H]1/C=C/CCCCC(=O)O[C@@H](/C(C)=C/[C@H](C)C(=O)C[C@H](O)CC2CC(=O)NC(=O)C2)[C@@H](C)C1             active
1  C=C1[C@@]2(C)CC3C4(C)CCC(O)C(C)(C)C4CCC3(C)[C@]1(C(=O)OC)C(=O)C(C)(O)C2=O (some centres not stated)           inactive
2  C[C@@]1(CCC(=O)Nc2c(O)ccc(C(=O)O)c2O)C(=O)C=C[C@]23C[C@H]4C[C@H](O[C@@]4(C)C2)C31 (some centres not stated)           inactive
3  CC(C)=CCC/C(C)=C/Cc1cc([C@@H]2CC(=O)c3c(cc(O)c(CC=C(C)C)c3O)O2)ccc1O           inactive
4  C[C@@]12CCC[C@@](C)(C(=O)O)[C@H]1CC[C@@]13C[C@@H](CC[C@H]12)[C@](C)(O)C3           inactive
5  C/C(=C\[C@H](C)C(=O)/C=C/CC1CC(=O)NC(=O)C1)[C@@H]1OC(=O)/C=C/CC/C=C/C[C@@H](O)[C@@H]1C             active
6  C[C@H]1C=C[C@H]2CCCC[C@@H]2[C@H]1C(=O)[C@H]1CC2=C(C(=O)O)CCN2C1=O           inactive

Data origin, for the record: PubChem BioAssay (NCATS)
